Source: PubChem BioAssay (EPA / NIEHS)

- Read-out: Transforming Growth Factor (TGFB1), TGFB1 (gene 7040)
- protocol text: LTEA_HepaRG_TGFB1: Life Technologies and Expression Analysis (LTEA) Assay for Transforming Growth Factor (TGFB1) Transporter using HepaRG (AID 2283533)
- condition label: mRNA level, 48 h; actives raise or lower the signal
- Experimental: LTEA_HepaRG is a cell based, multiplexed-readout assay that uses HepaRG, a human liver cell line, with measurements taken at 48 hours after chemical dosing on a 96-well plate.LTEA_HepaRG_TGFB1 is one of 102 assay component(s) measured in the LTEA HepaRG cell culture assay. It is a marker of Cell proliferation, survival, death.Data from the assay component LTEA_HepaRG_TGFB1 was analyzed into 1 endpoint. […]
Activity calls are given as the source filed them. Rule for the calls: active = hit-call score of the fitted dose curve at least 0.9, where 1 is the maximum; inactive = score below 0.9.
Pick one and only one: TRUE = active, FALSE = inactive

{"columns": ["compound", "label value"],
 "data": [
  ["ClC1=C(Cl)C2(Cl)C3C(Cl)C=CC3C1(Cl)C2(Cl)Cl (stereo not drawn)", "FALSE"],
  ["O=C(N[C@H](c1ccccc1)[C@@H]1CN2CCC1CC2)c1c(Cl)ccc(C(F)(F)F)c1Cl", "TRUE"],
  ["Cc1ccc(N)c(N)c1", "FALSE"],
  ["CCCSC(=O)N(CCC)CCC", "FALSE"],
  ["CC(C)(O)c1cnn2c(-c3ccc(F)c(-c4c(F)cccc4C#N)c3)cnc2n1", "FALSE"],
  ["CC(C)(C)OOC(=O)c1ccccc1", "FALSE"],
  ["C=CCc1ccc2c(c1)OCO2", "FALSE"],
  ["N#CC(Br)(Br)C(N)=O", "FALSE"],
  ["CCN(CC)CCO", "FALSE"],
  ["Clc1ccc(C(c2ccc(Cl)cc2)C(Cl)(Cl)Cl)cc1", "FALSE"]
]}

Tell me the assay call for `CCCCCOC(=O)c1ccccc1C(=O)OCCCCC` please.
FALSE

Each compound tested received a call. Report the one for `CCCCCCCCn1sccc1=O` .
FALSE

For `CS(=O)(=O)NC(=O)c1cc(Oc2ccc(C(F)(F)F)cc2Cl)ccc1[N+](=O)[O-]` , what call appears in the results of this test?
FALSE

---

- protocol text: STM_H9_NormalizedViability: Cytotoxicity Assessment at 120 hours in the Stemina devTOX quickPredict H9 human embryonic stem cell (hESC)-based Assay (AID 2283784)
Results filed as inconclusive are left out. Calls of active or inactive are those of the source. How the source made its calls: active means hit-call score of the fitted dose curve at least 0.9, where 1 is the maximum; inconclusive means response in the unintended direction; inactive means score below 0.9.
Choose the fitting class; nothing outside active, inactive is accepted.

The following molecules have reported results that may help.
{"columns": ["molecule", "label value"],
 "data": [
  ["CCCCCCCCn1sccc1=O", "active"],
  ["CCC[CH2][Sn]([Cl])([CH2]CCC)[CH2]CCC", "active"],
  ["Brc1ccc(Oc2ccccc2)cc1", "inactive"],
  ["O=C1CCCO1", "inactive"],
  ["C[N+](C)(C)CC1CO1 (stereo unspecified)", "active"],
  ["CNC(=O)Oc1cccc2c1OC(C)(C)C2", "active"],
  ["O=P(OCCCl)(OCCCl)OCCCl", "inactive"],
  ["CO[C@@H]1[C@H](OC(=O)NC(=O)CCl)CC[C@]2(CO2)[C@H]1[C@@]1(C)O[C@@H]1CC=C(C)C", "active"],
  ["CN(C)C(=O)Nc1ccc(Cl)cc1", "inactive"],
  ["OCCCBr", "inactive"]
]}

Would you mind telling me which call this test gave `Cc1ccc(N)c(N)c1` ?
active

Which result was noted for this molecule in the test: `Nc1ccc(Oc2ccc(N)cc2)cc1`
active

Which outcome was assigned to `COC(=O)Nc1nc2ccccc2[nH]1` in this test?
inactive

Please indicate how the test categorized `COc1cc(C=O)cc2c1[C@H](COC(N)=O)[C@]1(OC(C)=O)ON2C[C@H]2[C@@H]1N2C(C)=O` .
active

# outcome recorded in this test, key = `CC(C)COC(=O)c1ccccc1C(=O)OCC(C)C`
inactive

Which outcome was assigned to `O=[N+]([O-])c1ccc(Oc2ccc(Cl)cc2Cl)cc1` in this test?
active

---

- tgt: human Matrix Metalloproteinase-2 (MMP2), MMP2 (gene 4313)
- protocol text: NVS_ENZ_hMMP2: NovaScreen (NVS) Enzymatic Assay for human Matrix Metalloproteinase-2 (MMP2) (AID 2283184)
Inconclusive results are not listed. Activity calls are given as the source filed them. The calls were made as follows: active = hit-call score of the fitted dose curve at least 0.9, where 1 is the maximum; inconclusive = response in the unintended direction; inactive = score below 0.9.
measured parameter: AC50

Known AC50 results, listed for orientation:
{"columns": ["compound", "tgt", "measured result"],
 "data": [
  ["CN(C)C(=O)Nc1ccc(Cl)cc1", "human Matrix Metalloproteinase-2 (MMP2), MMP2 (gene 4313)", "17.9 µM (active)"],
  ["Clc1ccc(C(c2ccc(Cl)cc2)C(Cl)(Cl)Cl)cc1", "human Matrix Metalloproteinase-2 (MMP2), MMP2 (gene 4313)", "inactive"],
  ["CNC(=O)Oc1cccc2c1OC(C)(C)C2", "human Matrix Metalloproteinase-2 (MMP2), MMP2 (gene 4313)", "inactive"],
  ["CC(C)(C)C(O)(CCc1ccc(Cl)cc1)Cn1cncn1 (configuration not stated)", "human Matrix Metalloproteinase-2 (MMP2), MMP2 (gene 4313)", "inactive"],
  ["Nc1ccc(Oc2ccc(N)cc2)cc1", "human Matrix Metalloproteinase-2 (MMP2), MMP2 (gene 4313)", "19.2 µM (active)"],
  ["Oc1ccccc1Cl", "human Matrix Metalloproteinase-2 (MMP2), MMP2 (gene 4313)", "inactive"]
]}

Pending compound:
Under human Matrix Metalloproteinase-2 (MMP2), MMP2 (gene 4313), report AC50 for `Cc1ccc(N=C=O)cc1N=C=O`
10.3 µM (active)

---

- protocol text: ATG_Sox_CIS: Attagene CIS-FACTORIAL HepG2 Assay for human SRY-box transcription factor (SOX) (AID 2282960)
- condition label: HepG2 Attagene cis-factorial SOX reporter, mRNA; actives raise or lower the signal
The source made the active and inactive calls. Rule for the calls: active = hit-call score of the fitted dose curve at least 0.9, where 1 is the maximum; inactive = score below 0.9.
Write down one outcome, taken from class 1 = active, class 0 = inactive

Some entries whose results are on file:
{"columns": ["compound", "label value"],
 "data": [
  ["N#CC(Br)Br", "class 0"],
  ["CCC[CH2][Sn]([Cl])([CH2]CCC)[CH2]CCC", "class 0"],
  ["Cc1ccc(N)c(N)c1", "class 0"]
]}

Answer briefly: the call reported for `Brc1ccc(Oc2ccccc2)cc1` in this assay.
class 0

I'd appreciate the recorded outcome for `CS(=O)(=O)NC(=O)c1cc(Oc2ccc(C(F)(F)F)cc2Cl)ccc1[N+](=O)[O-]` from this test.
class 0

Tell me the recorded outcome of this test for `O=C(Oc1ccc(Br)cc1)N1CCN2CCC1CC2` .
class 0

---

- protocol text: ATG_NFI_CIS: Attagene CIS-FACTORIAL HepG2 Assay for human Nuclear Factor I (NFI) (AID 2282989)
- condition label: HepG2 cis-regulatory reporter, NFI response element transcription; actives raise or lower the signal
Active and inactive are the calls of the source. Rule for the calls: active = hit-call score of the fitted dose curve at least 0.9, where 1 is the maximum; inactive = score below 0.9.
Answer with one of the outcomes YES (active), NO (inactive)

{"columns": ["compound", "label value"],
 "data": [
  ["Brc1ccc(Oc2ccccc2)cc1", "YES"],
  ["COC(=O)Nc1nc2ccccc2[nH]1", "NO"],
  ["Cc1cccc(N)c1N", "NO"],
  ["c1ccc(C2CO2)cc1 (stereo not drawn)", "NO"],
  ["C=CCc1ccc2c(c1)OCO2", "NO"],
  ["C[N+](C)(C)CC1CO1 (stereo not drawn)", "NO"]
]}

Per the assay record, what outcome was assigned to `CN(C)C(=O)Nc1ccc(Cl)cc1` ?
NO

Fill in: this test's call for `C1=Cc2cccc3cccc1c23` is ___
NO

---

- tgt: human Serotonin Transporter (SERT), SLC6A4 (gene 6532)
- protocol text: NVS_TR_hSERT: NovaScreen (NVS) Transporter Assay for human Serotonin Transporter (SERT) (AID 2283372)
Results filed as inconclusive are left out. Calls of active or inactive are those of the source. The calls were made as follows: active = hit-call score of the fitted dose curve at least 0.9, where 1 is the maximum; inconclusive = response in the unintended direction; inactive = score below 0.9.
Outcome (select one): yes for active, no for inactive

Take a look at these entries with their results.
{"columns": ["line notation", "label value"],
 "data": [
  ["O=C(Oc1ccc(Br)cc1)N1CCN2CCC1CC2", "yes"],
  ["CCOC(=O)[C@]1(c2ccccc2)Oc2ccccc2[C@@H]1N", "yes"],
  ["C[C@]12C=CC3=C4CCC(=O)C=C4CC[C@H]3[C@@H]1CC[C@@H]2O", "no"],
  ["Cn1cc(-c2ccccc2)c(=O)c(-c2cccc(C(F)(F)F)c2)c1", "no"],
  ["O=[N+]([O-])c1ccc(Oc2ccc(Cl)cc2Cl)cc1", "no"]
]}

Test call, this compound: `CCC[CH2][Sn]([Cl])([CH2]CCC)[CH2]CCC`
yes

# lookup: test call for `O=C(N[C@H](c1ccccc1)[C@@H]1CN2CCC1CC2)c1c(Cl)ccc(C(F)(F)F)c1Cl`
yes

---

- Read-out: urokinase plasminogen activator (uPA), PLAU (gene 5328)
- protocol text: BSK_KF3CT_uPA: BioMAP Diversity Plus: KF3CT Assay for urokinase plasminogen activator (uPA) Biomarker Activity (AID 2283075)
- condition label: primary human keratinocytes with fibroblasts; actives raise or lower the signal
- Experimental: BSK_KF3CT is a cell-based, multiplexed-readout assay that uses keratinocytes and foreskin fibroblasts, a human skin primary cell co-culture, with measurements taken at 24 hours after chemical dosing in a 96-well plate.BSK_KF3CTA is an assay component measured in the BSK_KF3CT assay. It measures uPA antibody related to regulation of gene expression using ELISA technology.Data from the assay component BSK_KF3CTA was analyzed into 1 assay endpoint. […]
Activity calls are given as the source filed them. Rule for the calls: active = hit-call score of the fitted dose curve at least 0.9, where 1 is the maximum; inactive = score below 0.9.
measured parameter: outcome

{"columns": ["molecule", "outcome"],
 "data": [
  ["CN(C)c1ccc(C(=O)c2ccc(N(C)C)cc2)cc1", "inactive"],
  ["CN(C)[C@@H]1C(=O)C(C(N)=O)=C(O)[C@@]2(O)C(=O)C3=C(O)c4c(O)cccc4[C@@](C)(O)[C@H]3C[C@@H]12", "inactive"],
  ["CCCCC(CC)COC(=O)c1ccc(C(=O)OCC(CC)CCCC)c(C(=O)OCC(CC)CCCC)c1 (centres undefined)", "inactive"],
  ["CC(O)CCO (centres undefined)", "inactive"],
  ["CC(C)(C)C(O)(CCc1ccc(Cl)cc1)Cn1cncn1 (centres undefined)", "inactive"],
  ["O=C(Nc1ccccc1)c1ccccc1I", "inactive"]
]}

Dear colleague, please send me the reported outcome for `Oc1ccccc1Cl` when you can.
inactive

Output measured outcome for this item: `Clc1ccccc1Cl`
inactive

Look up outcome of `c1ccc(NNc2ccccc2)cc1` and report it.
inactive

Return the recorded outcome value; entry: `N#CC(Br)Br`
inactive

Give recorded outcome. `COP(=S)(OC)SCN1C(=O)c2ccccc2C1=O`
inactive

Look up outcome of `CN(C)c1ccccc1` and report it.
inactive

// Input: `CN(C)C(=O)Nc1ccc(Cl)cc1` . Output its outcome only.
inactive

State its outcome: `CC(C)COC(=O)c1ccccc1C(=O)OCC(C)C`
inactive
